Data provenance: patent US6534524B1

PROCEDURE_SUMMARY: Determination of inhibitor concentration in mouse plasma after intraperitoneal and oral dosing
Format: in vivo
RUN_PARAMETERS: PO, 25 mg/kg, vehicle PEG400:H2O pH 2.3 30:70
yes (1) means recorded plasma half-life (T1/2) is 2 h or above; no (0) means it is below 2 h.

                                   compound  label_class
0  CONC(=O)c1ccccc1Sc1ccc2c(/C=C/c3ccccn3)n[nH]c2c1 [Example 35(r)]       no (0)
1  Cn1ccnc1/C=N/NC(=O)c1ccccc1Sc1ccc2c(/C=C/c3ccccn3)n[nH]c2c1 [Example 36(a)]       no (0)
2  C=C(C)CNC(=O)c1ccccc1Sc1ccc2c(/C=C/c3ccccn3)n[nH]c2c1 [Example 35(ee)]      yes (1)
3  CC(=O)Nc1cc(C(=O)c2ccc3c(/C=C/c4ccccn4)n[nH]c3c2)ccc1C [Example 41(gg)]       no (0)
4  Cc1cc(C(=O)Nc2cc(Nc3ccc4c(/C=C/c5ccccn5)n[nH]c4c3)c(F)cc2C)n(C)n1 [Example 48(b)]      yes (1)
5  CCn1nc(C)cc1C(=O)Nc1cccc(Oc2ccc3c(/C=C/c4c[nH]c(C)n4)n[nH]c3c2)c1 [Example 32(c)]      yes (1)
